test: Lipophilicity, ChromlogD of compound at 0.5 mM at pH 6.5 by UPLC-UV analysis; conditions: buffer, pH 6.5, 500 µM
PARAMETER: ChromlogD6.5
Just the number, please.

Which ChromlogD6.5 is reported for this compound? CC(C)n1nc(-c2ccc3oc(N)nc3c2)c2c(=O)[nH]c(N)nc21
0.4

Which ChromlogD6.5 is reported for this compound? CNc1nc2c(c(-c3ccc4oc(N)nc4c3)nn2C(C)C)c(=O)[nH]1
1.5

Which ChromlogD6.5 is reported for this compound? CC(C)n1nc(-c2ccc3oc(N)nc3c2)c2c(N)nc(N)nc21
-0.1

Which ChromlogD6.5 is reported for this compound? CC(C)n1nc(-c2ccc3oc(N)nc3c2)c2c(Cl)nc(N)nc21
1.7

Which ChromlogD6.5 is reported for this compound? CCc1nc(N)nc2c1c(-c1ccc3oc(N)nc3c1)nn2C(C)C
1.2

Which ChromlogD6.5 is reported for this compound? Cc1nc2c(c(-c3ccc4oc(N)nc4c3)nn2C(C)C)c(=O)[nH]1
1.2

Which ChromlogD6.5 is reported for this compound? CC(C)n1nc(-c2ccc3oc(N)nc3c2)c2c(C(F)(F)F)nc(N)nc21
2.4

Which ChromlogD6.5 is reported for this compound? COc1nc(N)nc2c1c(-c1ccc3oc(N)nc3c1)nn2C(C)C
1.6

Which ChromlogD6.5 is reported for this compound? CC(C)n1nc(-c2ccc3oc(N)nc3c2)c2c(N)ncnc21 [SAPANISERTIB]
0.4

Which ChromlogD6.5 is reported for this compound? CC(C)n1nc(-c2ccc3oc(N)nc3c2)c2c(C#N)nc(N)nc21
1.8
